- System: A549 (EGFR WT) NSCLC cells
- PROTOCOL_SUMMARY: Cell proliferation assay (MTS cell viability)
- Type: cell-based
- CONDITION_LABEL: Homo sapiens, 72 h; A549 cells, 3 days of exposure, MTS
READOUT_TYPE: IC50

C=CC(=O)Nc1cccc(Nc2ncc(Cl)c(Nc3ccccc3C(=O)C(=O)NC)n2)c1: > 3 µM

Ask | GET /values?readout=IC50&system=A549 (EGFR WT) NSCLC cells&item= "C=CC(=O)Nc1cc(Nc2ncc(Cl)c(Nc3ccccc3C(=O)C(=O)N(C)C)n2)ccc1OC"
Reply | > 3 µM

Ask | Record "C=CC(=O)Nc1cc(Nc2ncc(Cl)c(Nc3ccccc3C(=O)C(=O)N(C)C)n2)c(OC)cc1F" : what is its IC50 with A549 (EGFR WT) NSCLC cells?
Reply | > 3 µM
